test: A CellTox Green Cytotoxicity Assay to monitor cytotoxicity in HEK293 cells - 24 hour (AID 1224875); settings: CellTox Green fluorescence; series mostly up to 76.8 µM; also: nearly all actives have a fitted effect of over 45% in size
Results filed as inconclusive are left out. Active and inactive are the calls of the source. Calls follow the shape of the dose curve; as a rule, active = well fitted activation curve with a large enough effect in the repeat runs; inconclusive = weak or mixed curves; inactive = flat fitted curve, though single readings scatter.
value kind: activity change

See these solved cases before continuing.
molecule	value kind	observed value
CCCC(=O)O[C@]1(C(=O)CCl)[C@@H](C)C[C@H]2[C@@H]3CCC4=CC(=O)C=C[C@]4(C)[C@@]3(F)C(=O)C[C@@]21C	activity change	inactive
CC(C)COC(=O)c1ccccc1O	activity change	inactive
Oc1cc(O)c2c(c1)O[C@H](c1ccc(O)c(O)c1)[C@H](O)C2	activity change	inactive
C#CC(O)CCCCC (configuration not stated)	activity change	inactive

Output measured activity change for this item: CN(C)CCOC(c1ccc(Cl)cc1)c1ccccn1 (configuration not stated)
inactive

# return recorded activity change for input CC(O)CN(CCCN(C)C)CCCN(C)C (configuration not stated)
inactive

Provide one value: measured activity change of CC/C=C\C#N
inactive
